Target: human α2A‐adrenoceptor (Homo sapiens)
Sequence (P08913 1-465): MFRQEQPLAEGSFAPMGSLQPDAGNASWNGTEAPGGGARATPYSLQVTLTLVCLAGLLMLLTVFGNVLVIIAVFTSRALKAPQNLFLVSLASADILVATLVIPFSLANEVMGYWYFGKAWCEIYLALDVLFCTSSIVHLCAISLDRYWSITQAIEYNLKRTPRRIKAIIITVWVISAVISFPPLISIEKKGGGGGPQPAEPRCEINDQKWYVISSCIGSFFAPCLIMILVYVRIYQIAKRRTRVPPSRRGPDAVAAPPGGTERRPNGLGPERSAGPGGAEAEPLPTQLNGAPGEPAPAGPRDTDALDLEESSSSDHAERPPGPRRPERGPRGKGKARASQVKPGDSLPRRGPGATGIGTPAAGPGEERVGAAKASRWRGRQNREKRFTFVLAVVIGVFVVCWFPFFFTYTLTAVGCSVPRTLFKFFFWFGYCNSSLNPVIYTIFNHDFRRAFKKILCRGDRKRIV
measured property: Log IC50 (Gi), CRE‐SPAP (with forskolin)

INSERT INTO measurements (compound, recorded_result) VALUES
  ('COc1ccc(CC(C)NCC(O)c2ccc(O)c(NC=O)c2)cc1 (stereo not drawn) [Formoterol]', 'No response'),
  ('CN[C@@H](C)[C@H](O)c1ccccc1 [Ephedrine]', 'No response'),
  ('CC(Cc1ccc(O)cc1)NCC(O)c1cc(O)cc(O)c1 (stereo not drawn) [Fenoterol]', 'No response');
